Tested on: HEK-293T
Test: Multiplex assay against HEK293T
Assay type: toxicity, cell-based
Settings: human, 12 h, 1 µM, compound concentration 1 uM, replicate 1
parameter_measured: Population Membrane Permeable-Phenotype (%)
Give your result in % as a bare value.

Item CN1C2CCC1CC(OC(c1ccc(F)cc1)c1ccc(F)cc1)C2.Cl (stereo not drawn) ; assay system HEK-293T; Population Membrane Permeable-Phenotype (%) reported as 2

Item COc1cc2ncnc(Nc3ccc(F)c(Cl)c3)c2cc1NC(=O)/C=C/CN1CCCCC1 [DACOMITINIB ANHYDROUS] ; assay system HEK-293T; Population Membrane Permeable-Phenotype (%) reported as 18

Item COc1cc(N2CCN(C)CC2)ccc1Nc1ncc2c(n1)N(C)c1ccccc1C(=O)N2C ; assay system HEK-293T; Population Membrane Permeable-Phenotype (%) reported as 1

Item CNc1cc(Oc2cc(C(=O)Nc3cc(N4CCN(C)CC4)cc(C(F)(F)F)c3)ccc2C)ncn1 ; assay system HEK-293T; Population Membrane Permeable-Phenotype (%) reported as 0

Item CCCS(=O)(=O)c1nc(NC2CC2)cc(-c2ccc3c(ccn3C3CC(C)(C)NC(C)(C)C3)c2)n1 ; assay system HEK-293T; Population Membrane Permeable-Phenotype (%) reported as 4

Item COc1ccc(S(=O)(=O)N(CCO)c2ccccc2CN(C)C/C=C/c2ccc(Cl)cc2)cc1.O=P(O)(O)O ; assay system HEK-293T; Population Membrane Permeable-Phenotype (%) reported as 6

Item Cn1nc(C(F)(F)F)cc1-c1cnc(N2CCc3cc(S(=O)(=O)Nc4c(F)cc(Cl)cc4F)cc(N4CCCC4=O)c32)nc1 [TP-020] ; assay system HEK-293T; Population Membrane Permeable-Phenotype (%) reported as 6

Item O=C(Cc1ccc(-c2ccc(OCCN3CCOCC3)cc2)cn1)NCc1ccccc1 [TIRBANIBULIN] ; assay system HEK-293T; Population Membrane Permeable-Phenotype (%) reported as 0

###

Test system: U2OS
Assay: Multiplex assay against U2OS
Assay type: toxicity, cell-based
Conditions: human, 12 h, 10 µM, compound concentration 10 uM, replicate 1
Response field label takes Criterion met when Population Membrane Permeable-Phenotype (%) is strictly below 40% and Criterion not met in all other cases.

Given O=C(Nc1ccc(Cl)cc1)Nc1cccc(-c2cccc(N3CCCC3)n2)c1 , is recorded Population Membrane Permeable-Phenotype (%) strictly lower than 40%?
Criterion not met

Given NC(=O)c1cccc(-c2cc(Nc3ccc(OC(F)(F)F)cc3)ncn2)c1 , is recorded Population Membrane Permeable-Phenotype (%) strictly lower than 40%?
Criterion met

Given CNc1cc(Oc2cc(C(=O)Nc3cc(N4CCN(C)CC4)cc(C(F)(F)F)c3)ccc2C)ncn1 , is recorded Population Membrane Permeable-Phenotype (%) strictly lower than 40%?
Criterion not met

Given COCC(=O)NC/C=C/c1ccc2ncnc(Nc3ccc(Oc4ccc(C)nc4)c(C)c3)c2c1 , is recorded Population Membrane Permeable-Phenotype (%) strictly lower than 40%?
Criterion met

Given Cc1ccc(C(=O)Nc2cccc(C(F)(F)F)c2)cc1Nc1nc(-c2cccnc2)nc2c1cnn2C , is recorded Population Membrane Permeable-Phenotype (%) strictly lower than 40%?
Criterion not met

Given O=C(Nc1ccc(-c2ccnc(Nc3ccc(N4CCOCC4)cc3)n2)cc1)[C@@H]1CCCN1 , is recorded Population Membrane Permeable-Phenotype (%) strictly lower than 40%?
Criterion met

Given CCN1CCN(c2ccc(Nc3cc(N(C)C(=O)Nc4c(Cl)c(OC)cc(OC)c4Cl)ncn3)cc2)CC1 , is recorded Population Membrane Permeable-Phenotype (%) strictly lower than 40%?
Criterion met

Given CN1CCN(C(=O)C(C)(C)c2ccc(C(=O)Nc3cn4cc(-c5cc(C(C)(C)C)cc(C(C)(C)C)c5)ccc4n3)cc2)CC1 , is recorded Population Membrane Permeable-Phenotype (%) strictly lower than 40%?
Criterion not met

Given Cl.O=c1c2cccn2c2ccccc2n1CCCN1CCC(c2ccc(Cl)cc2)CC1 , is recorded Population Membrane Permeable-Phenotype (%) strictly lower than 40%?
Criterion not met

Given CCOc1cc(C(=O)N2CCC(N3CCN(C)CC3)CC2)ccc1Nc1ncc2c(n1)N(C1CCCC1)c1ccccc1C(=O)N2C , is recorded Population Membrane Permeable-Phenotype (%) strictly lower than 40%?
Criterion not met

Given Cc1ccc2nc(NCCN)c3ncc(C)n3c2c1.O=C(O)C(F)(F)F.O=C(O)C(F)(F)F , is recorded Population Membrane Permeable-Phenotype (%) strictly lower than 40%?
Criterion met

Given CCn1cc(-c2ccnc3[nH]c(-c4cccc(CN(C)C)c4)cc23)c(-c2ccc(NC(=O)N(C)C)cc2)n1 , is recorded Population Membrane Permeable-Phenotype (%) strictly lower than 40%?
Criterion met

Given CCCS(=O)(=O)Nc1ccc(F)c(C(=O)c2c[nH]c3ncc(Cl)cc23)c1F , is recorded Population Membrane Permeable-Phenotype (%) strictly lower than 40%?
Criterion met

Given C=C1/C(=C\C=C2/CCC[C@]3(C)[C@@H]([C@H](C)/C=C/[C@H](C)C(C)C)CC[C@@H]23)C[C@@H](O)C[C@@H]1O , is recorded Population Membrane Permeable-Phenotype (%) strictly lower than 40%?
Criterion met

Given O=C(Cc1ccc(-c2ccc(OCCN3CCOCC3)cc2)cn1)NCc1ccccc1 , is recorded Population Membrane Permeable-Phenotype (%) strictly lower than 40%?
Criterion met

Given O=C(Nc1ccc(-n2nc(-c3cccnc3)cc2C(F)(F)F)cn1)c1ccc(-c2ccccc2)c(F)c1 , is recorded Population Membrane Permeable-Phenotype (%) strictly lower than 40%?
Criterion met

Given CCc1cccc(CC)c1NC(=O)c1nn(C)c2c1CCc1cnc(Nc3ccc(C(=O)NC4CCN(C)CC4)cc3OC(F)(F)F)nc1-2 , is recorded Population Membrane Permeable-Phenotype (%) strictly lower than 40%?
Criterion met

Given CN1C2CCC1CC(OC(c1ccc(F)cc1)c1ccc(F)cc1)C2.Cl (configuration not stated) , is recorded Population Membrane Permeable-Phenotype (%) strictly lower than 40%?
Criterion met

Given COc1cc2ncnc(Nc3ccc(F)c(Cl)c3)c2cc1NC(=O)/C=C/CN1CCCCC1 [DACOMITINIB ANHYDROUS] , is recorded Population Membrane Permeable-Phenotype (%) strictly lower than 40%?
Criterion met

Given CN(C)C(=O)C(CCN1CCC(O)(c2ccc(Cl)cc2)CC1)(c1ccccc1)c1ccccc1.Cl [LOPERAMIDE HYDROCHLORIDE] , is recorded Population Membrane Permeable-Phenotype (%) strictly lower than 40%?
Criterion not met

Given Cn1nc(C(F)(F)F)cc1-c1cnc(N2CCc3cc(S(=O)(=O)Nc4c(F)cc(Cl)cc4F)cc(N4CCCC4=O)c32)nc1 , is recorded Population Membrane Permeable-Phenotype (%) strictly lower than 40%?
Criterion met

Given O=C(Nc1cccnn1)N1CCC(=Cc2cccc(Oc3ccc(C(F)(F)F)cn3)c2)CC1 , is recorded Population Membrane Permeable-Phenotype (%) strictly lower than 40%?
Criterion met

Given COC(=N)c1nc2ccc3ncnc(Nc4ccc(OC)cc4F)c3c2s1 , is recorded Population Membrane Permeable-Phenotype (%) strictly lower than 40%?
Criterion met

Given CCN1CCN(Cc2ccc(Nc3ncc(F)c(-c4cc(F)c5nc(C)n(C(C)C)c5c4)n3)nc2)CC1.CS(=O)(=O)O , is recorded Population Membrane Permeable-Phenotype (%) strictly lower than 40%?
Criterion not met

Given COc1cccc2cc(-c3nc([C@H]4CC[C@H](C(=O)O)CC4)n4ncnc(N)c34)[nH]c12 , is recorded Population Membrane Permeable-Phenotype (%) strictly lower than 40%?
Criterion met

Given COc1ccc(S(=O)(=O)N(CCO)c2ccccc2CN(C)C/C=C/c2ccc(Cl)cc2)cc1.O=P(O)(O)O , is recorded Population Membrane Permeable-Phenotype (%) strictly lower than 40%?
Criterion not met

Given CCn1c(=O)c(-c2ccc(-c3cncs3)cc2Cl)cc2cnc(Nc3ccc(N4CCN(C)CC4)cc3)nc21 , is recorded Population Membrane Permeable-Phenotype (%) strictly lower than 40%?
Criterion met

Given CCc1cccc(CC)c1NC(=O)c1nn(C)c2c1CCc1cnc(Nc3ccc(N4CCN(C)CC4)cc3OC)nc1-2 , is recorded Population Membrane Permeable-Phenotype (%) strictly lower than 40%?
Criterion met

Given COc1cc(N2CCN(C)CC2)ccc1Nc1ncc2c(n1)N(C)c1ccccc1C(=O)N2C , is recorded Population Membrane Permeable-Phenotype (%) strictly lower than 40%?
Criterion met

Given CCOC(=O)c1c(C)[nH]c2ccc3c(c12)CN1CCc2cc(OC)ccc2C1O3 (configuration not stated) , is recorded Population Membrane Permeable-Phenotype (%) strictly lower than 40%?
Criterion not met

Given CNC(=O)c1ccc(Nc2nc(OC3CCCC3)c3c(-c4ccc5nc(C)oc5c4)c[nH]c3n2)c(OC)c1 , is recorded Population Membrane Permeable-Phenotype (%) strictly lower than 40%?
Criterion not met

Given Cl.Oc1ccc2c3c1O[C@H]1c4[nH]c5c(c4C[C@@]4(O)[C@@H](C2)N(CC2CC2)CC[C@]314)C[C@@]1(O)[C@H]2Cc3ccc(O)c4c3[C@@]1(CCN2CC1CC1)[C@H]5O4 , is recorded Population Membrane Permeable-Phenotype (%) strictly lower than 40%?
Criterion met
